Source listed as patent US20200079833A1.

Here, each record is paired with measured cAMP Primary assay EC50 Gluc-R (2nd) data.
- Assayed Target: glucagon receptor (GCGR) (human, UniProt P47871 26-477)
- Sequence (P47871 26-477): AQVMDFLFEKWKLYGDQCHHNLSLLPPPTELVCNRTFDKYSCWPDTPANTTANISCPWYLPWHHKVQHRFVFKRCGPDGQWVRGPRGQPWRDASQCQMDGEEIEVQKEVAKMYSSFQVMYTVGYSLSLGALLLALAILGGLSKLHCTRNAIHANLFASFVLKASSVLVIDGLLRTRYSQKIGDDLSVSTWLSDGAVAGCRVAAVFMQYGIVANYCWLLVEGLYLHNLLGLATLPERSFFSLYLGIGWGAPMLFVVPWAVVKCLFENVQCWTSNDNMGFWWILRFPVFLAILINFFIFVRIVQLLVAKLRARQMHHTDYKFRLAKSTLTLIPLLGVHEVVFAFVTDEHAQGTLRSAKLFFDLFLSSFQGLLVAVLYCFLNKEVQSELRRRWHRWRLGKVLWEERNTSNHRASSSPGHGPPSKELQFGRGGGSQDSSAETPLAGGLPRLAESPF
- Measurement Notes: cell-based or functional assay
Starred links: 1 amine or outer side, 2 acyl side, 3 side chain; linkers in the order of their positions; H or OH if unused. Non-standard residues stand in square brackets, D forms with d. Groups on a side chain read outwards from the residue. Primed or numbered codes have the meaning given here. No end group written: not given here. *: point of attachment. γGlu = O=C(O)[C@H](CCC(=O)[*:2])N[*:1]; Stearoyl = CCCCCCCCCCCCCCCCCC(=O)*; Palmitoyl = CCCCCCCCCCCCCCCC(=O)*; αMeF = C[C@](N)(Cc1ccccc1)C(=O)O; αMeK = C[C@](N)(CCCCN)C(=O)O; Lauroyl = CCCCCCCCCCCC(=O)*; αMeS = C[C@](N)(CO)C(=O)O; PEG2′ = not defined here; Aib = CC(C)(N)C(=O)O
Enter your answer as a number in nM; do not include the unit.

Please review the following examples before continuing.
## Task Requested field: cAMP Primary assay EC50 Gluc-R (2nd). Item: H[Aib]EGS[αMeF]TSDV[αMeS]S[αMeF]LEGEAA[αMeK]E[αMeF]IK([PEG2′-PEG2′-γGlu-Stearoyl])[αMeF]VV[αMeK]GG-NH2 [SEQ ID NO 105]
## Result 25

## Task Requested field: cAMP Primary assay EC50 Gluc-R (2nd). Item: H[Aib]EGS[αMeF]TSDV[αMeS]S[αMeF]LEGK([PEG2′-PEG2′-γGlu-Stearoyl])AA[αMeK]E[αMeF]IA[αMeF]VV[αMeK]GG-NH2 [SEQ ID NO 112]
## Result 25.4

## Task Requested field: cAMP Primary assay EC50 Gluc-R (2nd). Item: H[Aib]EGS[αMeF]TSDV[αMeS]S[αMeF]LEGEAA[αMeK]K([PEG2′-PEG2′-γGlu-Stearoyl])[αMeF]IA[αMeF]VV[αMeK]GG-NH2 [SEQ ID NO 108]
## Result 25.4

## Task Requested field: cAMP Primary assay EC50 Gluc-R (2nd). Item: H[Aib]EGSK([PEG2′-PEG2′-γGlu-Stearoyl])TSDV[αMeS]S[αMeF]LEGEAA[αMeK]E[αMeF]IA[αMeF]VV[αMeK]GG-NH2 [SEQ ID NO 123]
## Result 25.6

## Task Requested field: cAMP Primary assay EC50 Gluc-R (2nd). Item: H[Aib]EGS[αMeF]TSDV[αMeS]S[αMeF]LEGEAAK([PEG2′-PEG2′-γGlu-Palmitoyl])E[αMeF]IA[αMeF]VV[αMeK]GG-NH2 [SEQ ID NO 109]
## Result 25.6

Continuing:
## Task Requested field: cAMP Primary assay EC50 Gluc-R (2nd). Item: H[Aib]EGS[αMeF]TSDV[αMeS]S[αMeF]LK([PEG2′-PEG2′-γGlu-Stearoyl])GEAA[αMeK]E[αMeF]IA[αMeF]VV[αMeK]GG-NH2 [SEQ ID NO 114]
## Result 25.4

## Task Requested field: cAMP Primary assay EC50 Gluc-R (2nd). Item: H[Aib]EGS[αMeF]TSDV[αMeS]S[αMeF]LEGEAAK([PEG2′-Lauroyl])E[αMeF]IA[αMeF]VV[αMeK]GG-NH2 [SEQ ID NO 134]
## Result 28

## Task Requested field: cAMP Primary assay EC50 Gluc-R (2nd). Item: H[Aib]EGS[αMeF]TSDK([PEG2′-PEG2′-γGlu-Stearoyl])[αMeS]S[αMeF]LEGEAA[αMeK]E[αMeF]IA[αMeF]VV[αMeK]GG-NH2 [SEQ ID NO 119]
## Result 25.2

## Task Requested field: cAMP Primary assay EC50 Gluc-R (2nd). Item: H[Aib]EGK([PEG2′-PEG2′-γGlu-Stearoyl])[αMeF]TSDV[αMeS]S[αMeF]LEGEAA[αMeK]E[αMeF]IA[αMeF]VV[αMeK]GG-NH2 [SEQ ID NO 124]
## Result 25.1

## Task Requested field: cAMP Primary assay EC50 Gluc-R (2nd). Item: HXEGSFTSDVSKFLEGEAAKEFIAFVVKGG (Aib 2; α-MeF 6, 13, 22, 25; α-MeS 11; α-MeK 20, 28; K(ε-γE-Palmitoyl) 12; C-terminal amide) [SEQ ID NO 88]
## Result 28

## Task Requested field: cAMP Primary assay EC50 Gluc-R (2nd). Item: H[Aib]EGS[αMeF]TSDV[αMeS]S[αMeF]LEGEAA[αMeK]E[αMeF]IA[αMeF]VV[αMeK]GK([PEG2′-PEG2′-γGlu-Stearoyl])-NH2 [SEQ ID NO 99]
## Result 24.9

## Task Requested field: cAMP Primary assay EC50 Gluc-R (2nd). Item: H[Aib]EGS[αMeF]TSK([PEG2′-PEG2′-γGlu-Stearoyl])V[αMeS]S[αMeF]LEGEAA[αMeK]E[αMeF]IA[αMeF]VV[αMeK]GG-NH2 [SEQ ID NO 120]
## Result 25.3

## Task Requested field: cAMP Primary assay EC50 Gluc-R (2nd). Item: H[Aib]EGS[αMeF]TK([PEG2′-PEG2′-γGlu-Stearoyl])DV[αMeS]S[αMeF]LEGEAA[αMeK]E[αMeF]IA[αMeF]VV[αMeK]GG-NH2 [SEQ ID NO 121]
## Result 25.1

## Task Requested field: cAMP Primary assay EC50 Gluc-R (2nd). Item: H[Aib]EGS[αMeF]TSDV[αMeS]S[αMeF]K([PEG2′-PEG2′-γGlu-Stearoyl])EGEAA[αMeK]E[αMeF]IA[αMeF]VV[αMeK]GG-NH2 [SEQ ID NO 115]
## Result 25.3
